# system: p38a activated, mitogen-activated protein kinase-activated protein kinase 2 (MAPKAP-K2 or MK2) enzyme (Homo sapiens (Human))
# Sequence (P49137 whole entry): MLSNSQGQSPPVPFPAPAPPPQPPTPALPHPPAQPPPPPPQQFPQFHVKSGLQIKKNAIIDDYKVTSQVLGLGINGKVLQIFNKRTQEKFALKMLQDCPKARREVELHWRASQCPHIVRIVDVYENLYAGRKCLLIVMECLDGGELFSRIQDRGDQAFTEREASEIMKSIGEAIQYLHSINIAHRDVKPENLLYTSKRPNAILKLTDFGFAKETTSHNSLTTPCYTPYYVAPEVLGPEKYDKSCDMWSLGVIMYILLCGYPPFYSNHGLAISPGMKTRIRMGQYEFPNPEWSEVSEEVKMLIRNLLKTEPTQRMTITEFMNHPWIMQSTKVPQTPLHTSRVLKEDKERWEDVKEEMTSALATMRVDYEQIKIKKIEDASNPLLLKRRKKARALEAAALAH
# method_notes: MK2 Omnia continuous-read kinase assay for compound potency
# Assay type: biochemical
# assay_conditions: [MK-2]=0.4 nM, [ATP]=10 μM, [ST3-Sox]=10 μM; room temperature
# Description: Mitogen-Activated Protein Kinase-Activated Protein Kinase 2 Omnia® Assay for Compound Potency Assessment: The protocol below describes a continuous-read kinase assay optimized to measure potency of compounds against p38a activated, mitogen-activated protein kinase-activated protein kinase 2 (MAPKAP-K2 or MK2) enzyme. […]
Could you please report measured IC50 for the items listed next?
One number for each entry, in nM.

Please review the entries below; each comes with its answer.
C=Cc1nccc(-c2ccc3c(ccc4sc5c(c43)NC[C@@H](C)NC5=O)n2)c1C 142
C#Cc1cc(-c2ccc3c(ccc4sc5c(c43)NC[C@@H](C)NC5=O)n2)c(CN2CCOCC2)cn1 49
C=Cc1cc(-c2ccc3c(ccc4sc5c(c43)NC[C@@H](C)NC5=O)n2)c(NC)nn1 19

# input compound: C[C@@H]1CNc2c(sc3ccc4nc(-c5cc(Cl)nnc5OCCN5CCCC5)ccc4c23)C(=O)N1 ; wanted: its IC50 981

----------
# system: p38a activated, mitogen-activated protein kinase-activated protein kinase 2 (MAPKAP-K2 or MK2) enzyme (Homo sapiens (Human))
# method_notes: MK2 Omnia continuous-read kinase assay for compound potency
# assay_conditions: [MK-2]=0.4 nM, [ATP]=10 μM, [ST3-Sox]=10 μM; room temperature
Would you mind telling me the reported pIC50 of each entry?
One number for each entry, as −log10 of the molar value.

Below, 6 compounds whose answers are already recorded.
C=Cc1cc(-c2ccc3c(ccc4sc5c(c43)NC[C@@H](C)NC5=O)n2)c(C)c(CN2CCOCC2)n1 8.30
C=Cc1cc(-c2ccc3c(ccc4sc5c(c43)NC[C@@H](C)NC5=O)n2)c(N(C)C)nn1 6.97
C#Cc1cc(-c2ccc3c(ccc4sc5c(c43)NC[C@@H](C)NC5=O)n2)cnn1 8.52
C/C=C/c1cc(-c2ccc3c(ccc4sc5c(c43)NC[C@@H](C)NC5=O)n2)c(C)cn1 6.68
C=Cc1cc(-c2ccc3c(ccc4sc5c(c43)NC[C@@H](C)NC5=O)n2)c(OC)nn1 7.30
C=Cc1cc(-c2ccc3c(ccc4sc5c(c43)NC[C@@H](C)NC5=O)n2)cc(CN2CCC(OC)CC2)n1 7.96

Batch request: pIC50 for each of the following compounds.
1. C#Cc1nc(CO)cc(-c2ccc3c(ccc4sc5c(c43)NC[C@@H](C)NC5=O)n2)n1
2. C#Cc1cc(-c2ccc3c(ccc4sc5c(c43)NC[C@@H](C)NC5=O)n2)ncn1
3. C#Cc1cc(-c2ccc3c(ccc4sc5c(c43)NC[C@@H](C)NC5=O)n2)c(C)nn1

1: 7.64; 2: 8.30; 3: 7.74

Could you tell me pIC50 for each of these compounds? They are listed below.
1. C=Cc1ccn(-c2ccc3c(ccc4sc5c(c43)NC[C@@H](C)NC5=O)n2)n1
2. C=Cc1ncc(COC2COC2)c(-c2ccc3c(ccc4sc5c(c43)NC[C@@H](C)NC5=O)n2)n1
3. [2H]C([2H])([2H])N1CCN(c2cc(-c3ccc4c(ccc5sc6c(c54)NC[C@@H](C)NC6=O)n3)cc(C#C)n2)CC1
4. C=Cc1nc(CN2CCN(C)CC2)cc(-c2ccc3c(ccc4sc5c(c43)NC[C@@H](C)NC5=O)n2)n1
5. C=Cc1ncc(C)c(-c2ccc3c(ccc4sc5c(c43)NC[C@@H](C)NC5=O)n2)n1
6. C#Cc1cc(-c2ccc3c(ccc4sc5c(c43)NC[C@@H](C)NC5=O)n2)cc(CN2CCC(OC)CC2)n1

1: 6.98; 2: 7.62; 3: 7.01; 4: 7.82; 5: 6.92; 6: 7.40
